Data origin: the supplement of paper PMC9732359

experimental details: protein stability index of a GFP-peptide fusion (yeast GPS) (PSI 1-4); higher = more stable; sorted into four equal gates, so the index is relative within each strain
test context: doa10∆
// reported protein stability index for each item listed
Kindly provide the number alone.

// solved cases for protein stability index follow
FLKVKGLVKQHLDSFNY [RET1] ... 3.09
LINDSYINDVHLLYPPH [SSN8] ... 3.29
DELELEDAIHIALLTLK [PRE8] ... 3.04
WVTEVLGNDIPHDLIIG [BRR2] ... 2.17
YSVLLESPLSVAIQQGD [YML103C/NUP188] ... 1.23

Now turn to the next sequence.
protein stability index recorded for this sequence, VYDIMALEDEERDEILT [BRR2] , is 3.15

* * *

// reported protein stability index for each item listed
experimental details: protein stability index of a GFP-peptide fusion (yeast GPS) (PSI 1-4); higher = more stable; sorted into four equal gates, so the index is relative within each strain
test context: san1∆
Kindly provide the number alone.

// solved cases for protein stability index follow
MFANMKVLGVKDMSPIL [LRP1] ... 1.41
PEKTSTELVDGRENFVY [SIR3] ... 3.1
PKLLDALNKISKYYPGV [SNU114] ... 2.8
IPFQTLYRSIESGEFDF [YJL039C/NUP192] ... 2.11
EEKEESNLAATKSMVKI [RPN11] ... 3.34
PGKGILTTAREHHSSVK [FAS2] ... 3.17
GSGSRLNRLPAASLGDM [RPL23A] ... 2.66
ILTDLVNYRHFKAMEDV [ITC1] ... 3.28

protein stability index recorded for this sequence, MAGKVLILTSHNMKAYY [BRR2] , is 1.6

protein stability index recorded for this sequence, TRPISSQVLDLAKKIAP [SMC2] , is 2.59

protein stability index recorded for this sequence, VESQFSAGRLYACISSR [RPS8A] , is 1.99

protein stability index recorded for this sequence, EDDSSNSCFSDGSQQNL [REC8] , is 3.65

protein stability index recorded for this sequence, EKPDNSNHNNLNLNNSE [SNF2] , is 3.15

protein stability index recorded for this sequence, ADEEEEIVDTYQEDIFV [ISW2] , is 3.43

protein stability index recorded for this sequence, VCGIIVKQEDMPFNDQG [RET1] , is 2.46

protein stability index recorded for this sequence, KINQERLERRINLTKVT [CSI1] , is 1.4

protein stability index recorded for this sequence, QFLEQGLSIHPTQITQY [SRP68] , is 2.27

protein stability index recorded for this sequence, LKKIRAHRGIRHFWGLR [RPS18A] , is 2.44

protein stability index recorded for this sequence, VAKTAPNSNKTHTEQNN [SNF2] , is 3.01

protein stability index recorded for this sequence, HLGLDDPQDVFNYNIFM [SIR2] , is 3.24

protein stability index recorded for this sequence, NSSKYYINEKESSYTEV [SMC4] , is 2.43

protein stability index recorded for this sequence, PSTNAQNVNVPSAFNFT [YOR098C/NUP1] , is 2.67

protein stability index recorded for this sequence, EEKPGLIITRKAFKNNS [SMC4] , is 2.82

protein stability index recorded for this sequence, NKLSSILQNEHDYWNKI [SRB4] , is 2.25

protein stability index recorded for this sequence, AESEAITVTAKQQPTMQ [SWI3] , is 2.88

protein stability index recorded for this sequence, PAGQATQKRTHVLKKNP [RPL4A] , is 3.28

protein stability index recorded for this sequence, LFEIVSNADTNQNSDMK [SRB8] , is 2.85

protein stability index recorded for this sequence, ISTLFQRDRHTLAYDRG [PRP8] , is 2.68

* * *

experimental details: protein stability index of a GFP-peptide fusion (yeast GPS) (PSI 1-4); higher = more stable; sorted into four equal gates, so the index is relative within each strain
test context: pdr5∆
// reported protein stability index for each item listed
Kindly provide the number alone.

// solved cases for protein stability index follow
ELTIIKNPRVTKEYLVQ [CSN9] ... 3
MTQRAIQSAESIKSQKE [SWI3] ... 1.74
AAKKAMYTLSAQDEVFS [ASC1] ... 2.6
IGLPRHSLAYLLENFAN [RRP6] ... 1.78
IQMNNSLQNNLQNNINN [SNF11] ... 3.32
LLWTPKKLEITSDGALS [RPR2] ... 2.42

protein stability index recorded for this sequence, DSVAAIGIPVNKASLAQ [QCR2] , is 2.61

protein stability index recorded for this sequence, NVLDYFAESPFFDKTSN [MED6] , is 2.99

protein stability index recorded for this sequence, MRRNSKILNIIKCSQSS [POP5] , is 2.27

protein stability index recorded for this sequence, YSPIEKESPWKILMYQY [RRP6] , is 1.89

protein stability index recorded for this sequence, MSLEPTQTVSGTPPMLH [DSN1] , is 3

* * *

experimental details: protein stability index of a GFP-peptide fusion (yeast GPS) (PSI 1-4); higher = more stable; sorted into four equal gates, so the index is relative within each strain
test context: pdr5∆
// reported protein stability index for each item listed
Kindly provide the number alone.

// solved cases for protein stability index follow
TFKSVSKYGMLLLRCDD [POP3] ... 2.01
PLVIRRYLPDGSFEDWS [RPO26] ... 3.27
VKLMKNITDYETHPDNS [BRR2] ... 2.42

Now turn to the next sequence.
protein stability index recorded for this sequence, QQQQQQNNSTGSSSIIY [SSN2] , is 2.99

* * *

experimental details: protein stability index of a GFP-peptide fusion (yeast GPS) (PSI 1-4); higher = more stable; sorted into four equal gates, so the index is relative within each strain
test context: ubr1∆
Think of 2 as a floor: if protein stability index stands on it or above, it is Yes; beneath it, No.

// known answers, use as guide
SILVIVQKILPLSNEVF [SWI1] ... No
TINGKVNGRTKSNTIPV [GAL11] ... Yes
KDILNLASEVGDPALVY [ECM29] ... Yes
KKKRSRTSATREDTPLS [ISW2] ... Yes
DNIRYATALQTCAGGRL [SMC2] ... No
NEGLVEYIDAEEEESIL [RPB2] ... Yes
LEQVEFEKNTILQQRSK [MED4] ... Yes
RTMLELITQLDGFDPRG [RPT1] ... Yes
TPDTKNFFHAKKKDPVN [SNF12] ... Yes
KNGLYQEAFKIYQHLAS [SRP72] ... Yes

Q: Hi, just wondering whether QLDAYGEKKVGSNGELF [SWP82] shows protein stability index of 2 or higher.
Result: Yes

Q: Hi, just wondering whether FSFGAATPSAKEASQED [YLR335W/NUP2] shows protein stability index of 2 or higher.
Result: Yes

Q: Hi, just wondering whether LLTVEEGQLKPGDGSSY [RPC25] shows protein stability index of 2 or higher.
Result: Yes

Q: Hi, just wondering whether SQISPEKQTPNKKDKKK [RPN1] shows protein stability index of 2 or higher.
Result: Yes

Q: Hi, just wondering whether MAVGKNKRLSRGKKGLK [RPS1B] shows protein stability index of 2 or higher.
Result: No

Q: Hi, just wondering whether TRKGYIPSSKYAYMMNS [YLR018C/POM34] shows protein stability index of 2 or higher.
Result: Yes

Q: Hi, just wondering whether TEAEETSIHSTISILAA [RRP43] shows protein stability index of 2 or higher.
Result: No

Q: Hi, just wondering whether QAVETVGQAGRPKKITG [RPN1] shows protein stability index of 2 or higher.
Result: Yes

Q: Hi, just wondering whether AIDYEPEYEKAMQYVCG [SMC1] shows protein stability index of 2 or higher.
Result: Yes

Q: Hi, just wondering whether DESDSENDIEIKGPEFK [YLR335W/NUP2] shows protein stability index of 2 or higher.
Result: Yes

Q: Hi, just wondering whether CSPWSLQISDIPAAGNN [SRB5] shows protein stability index of 2 or higher.
Result: Yes

Q: Hi, just wondering whether DPASFYLFDEIDAALDK [SMC3] shows protein stability index of 2 or higher.
Result: Yes

Q: Hi, just wondering whether DGKLIDISGTMSGGGNH [SMC4] shows protein stability index of 2 or higher.
Result: Yes

Q: Hi, just wondering whether VKVQPEGKYIVDVAKDI [RPT6] shows protein stability index of 2 or higher.
Result: Yes

Q: Hi, just wondering whether AAKKAMYTLSAQDEVFS [ASC1] shows protein stability index of 2 or higher.
Result: Yes

Q: Hi, just wondering whether FNQFVDYTLQDIICEDS [RPB2] shows protein stability index of 2 or higher.
Result: Yes

Q: Hi, just wondering whether DKLLKRLKEKGSRVLIF [ISW2] shows protein stability index of 2 or higher.
Result: No
